assay: Toxicity liver stage against HepG2, at 10uM; type: cell-based; set-up: test concentration 10 uM, cell line HepG2-A16-CD81EGFP; details: human, HepG2-A16-CD81EGFP cells; read-out: INHIBITION
Give cytotoxicity at 10 µM for every item shown.
Numeric only. Scale: %

[Q] Consider the molecule shown here: c1ccn2c(C3CCCN3Cc3nc(C4CC4)no3)nnc2c1 (configuration not stated) What is its recorded cytotoxicity at 10 µM?
[A] -2.59

[Q] Fill in the blank: the reported cytotoxicity at 10 µM of CN(Cc1cccc2cnccc12)C(=O)CCc1n[nH]c2c1CCCC2 is ____.
[A] -7.27

[Q] Look up cytotoxicity at 10 µM for this molecule: c1cc(C2CCN(C3CCCCC3)C2)n[nH]1 (configuration not stated)
[A] 1.65

[Q] Fill in the blank: the reported cytotoxicity at 10 µM of CCN(CC)CCN(CC(C)C)c1cc(C(F)(F)F)nc2ncnn12 is ____.
[A] -5.39

[Q] Bench note: what cytotoxicity at 10 µM did COc1cc(CN2CCC(COCc3ccccc3)CC2)cc(OC)c1 show?
[A] -3.38

[Q] Dear colleague, I am looking for the recorded cytotoxicity at 10 µM of the following molecule: Cc1nc(CN(C)C2CCN(CCc3ccccn3)C2)no1 (configuration not stated)
[A] -3.85

[Q] What value of measured cytotoxicity at 10 µM is listed for CCc1c(O)nc2nc(N3CCCC3)nn2c1C ?
[A] 10

[Q] Suppose we examine the molecule CNC(=O)[C@@]12CCCN(c3ncccn3)[C@@H]1CN(c1ncc(F)cn1)C2 ; what cytotoxicity at 10 µM value has been reported?
[A] -1.43

[Q] Please give the measured cytotoxicity at 10 µM for this molecule: O=C(CCc1ccsc1)NCc1ccnc(OC2CCOCC2)c1
[A] 5.92

[Q] Recorded cytotoxicity at 10 µM of CSc1ccccc1NC(=O)CCC(=O)N(C)C1CCN(C)CC1 , please.
[A] -2.91

[Q] Entry COc1ccc(CCN2CCOC(Cn3nc(C)nc3C)C2)cc1 (configuration not stated) has what cytotoxicity at 10 µM?
[A] 2.29

[Q] Request the reported cytotoxicity at 10 µM associated with COc1c(C2CCCN2c2ncnc3c2cnn3C)c(C)nn1C (configuration not stated)
[A] 1.95
